Header: pKi / Tyrosine-protein kinase JAK2 (Homo sapiens, UniProt O60674) / multiple publications
pKi: −log10 of the molar value.

>>> result("O=C(c1ccc(-c2ncnc3[nH]ccc23)o1)N(CCC(F)(F)F)CC1CCC1")
"> 7.00"

Q) Report value: pKi, system: Tyrosine-protein kinase JAK2 (Homo sapiens, UniProt O60674), molecule: FC(F)(F)c1ccccc1C1Nc2ccccc2-c2ccnc3[nH]cc1c23 (stereo not shown)
A) 5.60 to 6.60

Q) Fill in: pKi on Tyrosine-protein kinase JAK2 (Homo sapiens, UniProt O60674), entry CC(=O)N[C@@H]1CCCN(c2ccn(-c3cc(-c4c(F)cccc4C#N)nc4c3C(=O)NC4)n2)C1
A) 7.00 to 8.00

Q) Param request: pKi | system Tyrosine-protein kinase JAK2 (Homo sapiens, UniProt O60674) | item c1ccc2c(c1)NC(c1ccc3c(c1)OCO3)c1c[nH]c3nccc-2c13 (stereo not shown)
A) > 6.60

Q) Give reported pKi for C[C@H](Nc1cc(-c2c(N)nn3cccnc23)nc(S(C)(=O)=O)n1)c1ccc(F)cc1F (Tyrosine-protein kinase JAK2 (Homo sapiens, UniProt O60674))
A) > 8.00

Q) Please indicate recorded pKi of C[C@@]1(O)CN(c2ccn(-c3cc(-c4c(F)cccc4C#N)nc4c3C(=O)NC4)n2)CC[C@H]1O measured with Tyrosine-protein kinase JAK2 (Homo sapiens, UniProt O60674).
A) 8.00 to 10.00

Q) Report pKi from Tyrosine-protein kinase JAK2 (Homo sapiens, UniProt O60674) testing of CCc1cc(Nc2cc(N3CCC3)nc(Sc3ccc(NC(=O)c4ccccc4Cl)cc3)n2)n[nH]1
A) 6.36

Q) Specify pKi for CC(C)(C)OC(=O)N1CCC(C(=O)Nc2nc(-c3ncnc4[nH]ccc34)cs2)CC1 , system Tyrosine-protein kinase JAK2 (Homo sapiens, UniProt O60674).
A) 6.30 to 7.00

Q) Param request: pKi | system Tyrosine-protein kinase JAK2 (Homo sapiens, UniProt O60674) | item O=C(NCC(F)(F)F)C1(Nc2ccnc(-c3c[nH]c4ncncc34)n2)CCCC1
A) > 6.30

Q) Tell me pKi of CCNC(=O)Cc1ccn(-c2cc(-c3c(F)cccc3C#N)nc3c2C(=O)NC3)n1 when tested on Tyrosine-protein kinase JAK2 (Homo sapiens, UniProt O60674).
A) 6.00 to 7.00

Q) State pKi (Tyrosine-protein kinase JAK2 (Homo sapiens, UniProt O60674)) of Oc1ccc([C@H]2Nc3ccccc3-c3ccnc4[nH]cc2c34)c(Cl)c1 .
A) > 6.60
